target: CXCR7 (Homo sapiens, UniProt P25106); assay: PathHunter CHO-K1 CXCR7 b-arrestin recruitment assay (CXCR7 agonistic activity); conditions: PathHunter CHO-K1 CXCR7 b-arrestin cell line
Sequence (P25106 whole entry): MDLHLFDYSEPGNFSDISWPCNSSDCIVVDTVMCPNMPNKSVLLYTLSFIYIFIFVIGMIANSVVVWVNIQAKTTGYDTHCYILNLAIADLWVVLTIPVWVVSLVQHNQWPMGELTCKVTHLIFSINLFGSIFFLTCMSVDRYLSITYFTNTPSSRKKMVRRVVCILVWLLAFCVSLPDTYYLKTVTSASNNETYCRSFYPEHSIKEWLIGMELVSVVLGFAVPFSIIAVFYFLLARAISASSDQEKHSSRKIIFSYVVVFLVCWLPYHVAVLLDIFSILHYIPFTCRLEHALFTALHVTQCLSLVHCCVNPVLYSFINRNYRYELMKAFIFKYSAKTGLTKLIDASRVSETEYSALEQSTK
Sequence (P32121 whole entry partner): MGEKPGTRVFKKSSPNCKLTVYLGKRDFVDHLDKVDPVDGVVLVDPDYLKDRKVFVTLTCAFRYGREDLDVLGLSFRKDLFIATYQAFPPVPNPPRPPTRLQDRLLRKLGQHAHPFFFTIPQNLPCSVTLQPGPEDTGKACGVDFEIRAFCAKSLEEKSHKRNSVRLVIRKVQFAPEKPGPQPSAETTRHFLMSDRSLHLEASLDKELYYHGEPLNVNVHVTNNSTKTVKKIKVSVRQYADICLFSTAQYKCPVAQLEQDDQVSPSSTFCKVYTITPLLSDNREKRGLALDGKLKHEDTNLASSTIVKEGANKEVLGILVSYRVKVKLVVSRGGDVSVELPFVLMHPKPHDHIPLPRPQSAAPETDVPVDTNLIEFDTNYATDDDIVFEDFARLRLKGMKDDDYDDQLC
measureName: EC50

{"compound": "O=C(CNc1cccc2c1CN(CC1CC1)CC2)N(CCN1CC(F)(F)C1)Cc1ccccc1C(F)(F)F [compound 484]", "system": "CXCR7 (Homo sapiens, UniProt P25106)", "measureName": "EC50", "valueObserved": "79 nM"}
{"compound": "CC(C)C(C)N1CCc2c(cccc2NCC(=O)N(CCN(C)C)Cc2ccccc2C(F)(F)F)C1 (racemic) [Example 355]", "system": "CXCR7 (Homo sapiens, UniProt P25106)", "measureName": "EC50", "valueObserved": "10 nM"}
{"compound": "CCN1CCc2cccc(NCC(=O)N(CCN(C)C)Cc3ccccc3OC)c2C1 [compound 497]", "system": "CXCR7 (Homo sapiens, UniProt P25106)", "measureName": "EC50", "valueObserved": "77 nM"}

Lab note: O=C1CCCN1CCN(Cc1ccccc1C(F)(F)F)C(=O)CNc1cccc2c1CCN(CC1CC1)C2 [Example 63] gave EC50 of 19 nM

Lab note: CNCCN(Cc1ccccc1C(F)(F)F)C(=O)CNc1cccc2c1CN(CC1CC1)CC2 [compound 384] gave EC50 of 4 nM

Lab note: COCCN(Cc1ccccc1C(F)(F)F)C(=O)CNc1cccc2c1CCN(CC1CC1)C2 [Example 225] gave EC50 of 29 nM

Lab note: CN(C)CCN(Cc1ncccc1C(F)(F)F)C(=O)Cc1cccc2c1CCN(CC1CC1)C2 [Example 5] gave EC50 of 187 nM
